B1: 5KPH (parent)
chain: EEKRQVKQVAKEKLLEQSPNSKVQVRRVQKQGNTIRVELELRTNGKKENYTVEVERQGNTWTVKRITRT

Variants of: B1
MEASUREMENT DESCRIPTION: folding stability dG (cDNA display proteolysis); higher = more stable
TEST CONDITIONS: PBS, room temperature
The recorded folding stability dG of each item maps onto one of these classes: I (below 3 kcal/mol), II (3 kcal/mol to below 4 kcal/mol), III (4 kcal/mol or more)

SEQUENCE STRING	DISCRETE LABEL
EEKRQVKQVAKEKLLEQSPNSKVQVIRVQKQGNTIRVELELRTNGKKENYTVEVERQGNTWTVKRITRT	III
EEKRQVKQVAKEKLLEQSPNSKVQVRRVQKQGNTIRVELELRTNGKKENYTVEVERQGNTWTVKRIWRT	III

[Q] Could you tell me which band "EEKRQVKQVAKEKLLEQSPNSKVQVRRSQKQGNTIRVELELRTNGKKENYTVEVERQGNTWTVKRITRT" belongs to?
[A] I

[Q] Which folding stability dG category applies to "EEKRQVKQVAKEKLLEQSPNSKVQVRRVQKQGNTIRVELELRTNGKKENYTVEVERQGNTWTMKRITRT" here?
[A] I

[Q] Where would "EEKRQVKQVAKEKLLEQSPNSKVQVRRVQKQGNTIRVELELRTNGKKENYTVEVERQGNTWTQKRITRT" land among the classes by reported folding stability dG?
[A] I
